target: Noradrenaline (NA) reuptake (Rattus norvegicus); construct: synaptosomes are freshly isolated from areas of rat brain; from tissue; host or cells: rat hypothalamus synaptosomes (P2 fraction); experiment: Noradrenaline (NA) reuptake inhibition in rat brain synaptosomes (hypothalamus, P2 fraction); type: biochemical
Sequence (Q63380 1-617): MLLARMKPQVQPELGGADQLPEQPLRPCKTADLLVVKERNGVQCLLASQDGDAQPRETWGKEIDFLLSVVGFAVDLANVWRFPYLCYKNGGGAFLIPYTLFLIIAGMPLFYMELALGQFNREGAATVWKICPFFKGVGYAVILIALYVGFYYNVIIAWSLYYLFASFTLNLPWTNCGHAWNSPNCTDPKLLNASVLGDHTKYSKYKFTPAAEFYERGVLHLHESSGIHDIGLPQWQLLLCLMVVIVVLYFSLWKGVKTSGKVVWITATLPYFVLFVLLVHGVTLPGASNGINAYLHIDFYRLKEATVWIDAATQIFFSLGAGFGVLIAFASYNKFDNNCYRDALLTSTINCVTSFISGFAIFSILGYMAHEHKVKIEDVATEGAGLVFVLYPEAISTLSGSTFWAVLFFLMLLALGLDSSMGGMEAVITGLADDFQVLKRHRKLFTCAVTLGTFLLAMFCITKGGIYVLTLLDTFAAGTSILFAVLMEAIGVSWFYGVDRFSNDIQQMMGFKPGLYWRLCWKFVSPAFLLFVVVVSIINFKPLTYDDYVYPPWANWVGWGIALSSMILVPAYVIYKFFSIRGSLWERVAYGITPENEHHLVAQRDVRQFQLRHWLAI
Structures can show the parent of a compound that is named as a salt.
Each record is given label 1 if its reported Ki is strictly below 600 nM. Records at or above 600 nM are given label 0.

Take the compound CCC(=O)N(CCCCc1ccccc1)C1CCC(C(c2ccccc2)N(C)C)CC1 (centres unmarked) [compound 97, hydrochloride] and say whether its Ki is less than 600 nM.
label 0

Take the compound CCC(CC)C(=O)N(Cc1ccccc1)C1CCC(C(c2ccccc2)N(C)C)CC1 (centres unmarked) [compound 101, hydrochloride] and say whether its Ki is less than 600 nM.
label 0

Take the compound CN(C)C(c1ccccc1)C1CCC(N(Cc2ccccc2)C(=O)c2ccccc2)CC1 (centres unmarked) [compound 104, hydrochloride] and say whether its Ki is less than 600 nM.
label 1

Take the compound CCOC(=O)CCC1CCC(C(c2cccc(F)c2)N(C)C)CC1 (centres unmarked) and say whether its Ki is less than 600 nM.
label 0
